Assay: CaMKII Cell-Based Activity: CaMKII activity in neonatal rat ventricular myocytes (NRVM) was measured by monitoring the phosphorylation level of phospholamban using high-content imaging. NRVMs were plated in a clear bottom 384-well plate in medium supplemented with 10% fetal bovine serum (FBS) and incubated at 37° C., 5% CO2 overnight. The medium was changed to a serum-free medium and compounds were dosed to the cells. The cells were incubated at 37° C., 5% CO2 for 4 hours and were then treated with 100 nM ATX-II (Alomone Labs) to activate CaMKII. 10 minutes after the addition of ATX-II, the cells were fixed with 4% formaldehyde followed by permeabilization with 0.1% triton X100. The fixed cells were stained with an anti-phospho-phospholamban primary antibody (Santa Cruz Biotechnology) and an Alexa488-labeled anti-rabbit IgG secondary antibody (Life Technologies Corporation) as well as Hoechst 33342 (Life Technologies Corporation). The cells were imaged using an ArrayScan VTI (Cellomics) and analyzed for cells containing a positive fluorescent signal at 485 nm, reported as % responder. The % responders were plotted against the compound concentration to determine the compounds EC50.
Readings of EC50 for the listed compounds
Your answer should be a plain number; it is taken to be in nM.

// solved cases for EC50 follow
Cpd Smiles | EC50 / nM
CCN(CC)[C@@H](C)CNC(=O)c1cc(-c2cnn3ccc(-c4cccs4)nc23)nc(N2CC[C@H]2C(N)=O)c1 | 36
CCN(CC)[C@@H](C)CNC(=O)c1cncc(-c2cnn3ccc(-c4cccs4)nc23)c1 | 22

stdin: Using the record for CCN(CC)[C@@H](C)CNC(=O)c1cc(-c2cnn3ccc(-c4cccs4)nc23)nc(N2CC[C@H]2C(=O)NCC#N)c1 , report its EC50.
stdout: 65.3

stdin: Name the reported EC50 value associated with the compound CCCN(CC)[C@@H](C)CNC(=O)c1cc(-c2cnn3ccc(-c4cccs4)nc23)nc(N2CC[C@H]2C(=O)NC)c1
stdout: 13.6
